test system: SW480 (Colorectal carcinoma) cell line; test: MTT cytotoxic assay, SW480; assay type: cell-based; conditions: Homo sapiens, 72 h, 3 repetitions, read-out: IC50 ± SD SW480
value kind: IC50 (µM)
State the answer as a number, implicitly in µM.

Prompt line: Record request: IC50 value, item COc1cccc2c1C(=O)c1c(O)c3c(c(O)c1C2=O)C[C@@](O)(C(=O)CO)C[C@@H]3O[C@H]1C[C@H](N)[C@H](O)[C@H](C)O1 [Doxorubicin, reference compound]
Response line: 3.67

Prompt line: What about this molecule? O=c1c2cc(Br)ccc2nc(SCc2ccc([N+](=O)[O-])cc2)n1-c1ccccc1 [8h]
Response line: 65.4

Prompt line: What about this molecule? O=c1c2cc(Br)ccc2nc(SCc2ccc(Cl)cc2)n1-c1ccccc1 [8f]
Response line: 72.2

Prompt line: What about this molecule? C#Cc1cccc(Nc2ncnc3cc(OCCOC)c(OCCOC)cc23)c1 [Erlotinib, reference compound]
Response line: 11.2

Every entry's value here was drawn from paper PMC11225515.
